system: LXRa homodimer (NR concentration 270 nM); assay: PBM binding z-score (relative to random genomic background probes); higher = stronger binding; sequences stand for … in GC…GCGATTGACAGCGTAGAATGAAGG
Threshold rule: PBM binding z-score greater than or equal to -0.08 is TRUE; below that, FALSE.

**Q:** Test whether the sequence "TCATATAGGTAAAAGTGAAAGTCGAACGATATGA" records PBM binding z-score of -0.08 or higher.
**A:** FALSE

**Q:** What do you get for "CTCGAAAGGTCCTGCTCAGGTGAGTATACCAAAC" ?
**A:** FALSE

**Q:** Here is the next sequence: "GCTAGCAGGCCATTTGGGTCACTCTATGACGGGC"
**A:** FALSE

**Q:** And the next one, "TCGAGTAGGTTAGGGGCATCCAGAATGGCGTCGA" ?
**A:** FALSE

**Q:** Item: "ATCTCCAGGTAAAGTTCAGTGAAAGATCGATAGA"
**A:** TRUE

**Q:** For "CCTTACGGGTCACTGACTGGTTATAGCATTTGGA" then?
**A:** TRUE

**Q:** Try the sequence "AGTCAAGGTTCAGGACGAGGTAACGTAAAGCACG"
**A:** TRUE

**Q:** Consider next the sequence "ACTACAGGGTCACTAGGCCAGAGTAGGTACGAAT" in the same way.
**A:** FALSE

**Q:** Can you check "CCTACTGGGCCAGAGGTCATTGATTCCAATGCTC" next?
**A:** TRUE

**Q:** Note, next up: "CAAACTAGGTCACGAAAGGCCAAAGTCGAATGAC"
**A:** TRUE

**Q:** For "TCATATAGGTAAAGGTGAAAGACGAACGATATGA" then?
**A:** FALSE

**Q:** Can you check "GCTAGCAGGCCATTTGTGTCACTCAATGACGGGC" next?
**A:** FALSE

**Q:** Likewise for "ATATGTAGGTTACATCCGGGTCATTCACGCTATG" ?
**A:** TRUE

**Q:** Let us now turn to "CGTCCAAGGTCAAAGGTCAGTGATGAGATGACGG"
**A:** TRUE

**Q:** Another sequence to check: "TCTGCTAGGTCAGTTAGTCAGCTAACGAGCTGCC"
**A:** FALSE

**Q:** Proceed to "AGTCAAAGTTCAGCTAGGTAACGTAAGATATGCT"
**A:** TRUE

**Q:** One more sequence: "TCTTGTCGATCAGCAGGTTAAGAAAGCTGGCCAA"
**A:** FALSE

**Q:** Follow-up entry: "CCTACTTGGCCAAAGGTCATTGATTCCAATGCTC"
**A:** TRUE

**Q:** Could you do the same for "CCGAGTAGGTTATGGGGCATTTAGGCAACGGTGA" , please?
**A:** TRUE

**Q:** And for "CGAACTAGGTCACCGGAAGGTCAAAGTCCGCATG" ?
**A:** TRUE

**Q:** Try the sequence "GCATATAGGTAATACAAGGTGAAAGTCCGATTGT"
**A:** TRUE

**Q:** For "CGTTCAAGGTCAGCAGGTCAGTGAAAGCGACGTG" then?
**A:** TRUE

**Q:** Likewise for "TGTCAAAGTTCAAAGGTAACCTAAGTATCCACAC" ?
**A:** TRUE

**Q:** # repeat for "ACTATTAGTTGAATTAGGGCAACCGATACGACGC"
**A:** TRUE

**Q:** Input "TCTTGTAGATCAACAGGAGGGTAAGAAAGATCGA"
**A:** FALSE

**Q:** Note, next up: "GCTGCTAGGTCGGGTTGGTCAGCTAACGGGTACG"
**A:** FALSE

**Q:** Check "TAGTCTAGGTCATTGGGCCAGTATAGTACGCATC" too.
**A:** TRUE

**Q:** Thanks! And "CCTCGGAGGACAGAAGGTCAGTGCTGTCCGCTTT" ?
**A:** FALSE

**Q:** Subsequent entry: "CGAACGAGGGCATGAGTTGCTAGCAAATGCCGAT"
**A:** FALSE

**Q:** Would you mind doing "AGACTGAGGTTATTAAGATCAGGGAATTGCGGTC" as well?
**A:** TRUE

**Q:** Similarly, "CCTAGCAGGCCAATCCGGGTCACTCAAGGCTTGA" ?
**A:** FALSE

**Q:** Try this sequence too: "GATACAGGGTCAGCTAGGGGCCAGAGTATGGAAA"
**A:** FALSE

**Q:** Input "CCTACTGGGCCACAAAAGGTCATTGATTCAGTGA"
**A:** TRUE

**Q:** Another: "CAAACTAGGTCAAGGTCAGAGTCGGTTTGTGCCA"
**A:** TRUE

**Q:** And what about the sequence "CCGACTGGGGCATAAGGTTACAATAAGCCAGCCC" ?
**A:** FALSE

**Q:** Field entry: "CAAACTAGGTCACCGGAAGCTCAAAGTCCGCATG"
**A:** TRUE

**Q:** Same thing, different sequence: "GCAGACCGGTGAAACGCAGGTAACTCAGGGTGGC"
**A:** FALSE

**Q:** Now consider "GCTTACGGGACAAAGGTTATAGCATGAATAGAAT" and answer again.
**A:** TRUE

**Q:** What would you report for "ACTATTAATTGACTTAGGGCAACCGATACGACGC" ?
**A:** TRUE

**Q:** Input "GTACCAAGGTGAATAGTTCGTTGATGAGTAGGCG"
**A:** FALSE

**Q:** Now the same for "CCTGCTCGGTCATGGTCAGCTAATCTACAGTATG"
**A:** TRUE

**Q:** Try "CCGAGTAGGTTATGGGACATTCAGGCAACGGTGA" next.
**A:** TRUE

**Q:** // same read-out, input: "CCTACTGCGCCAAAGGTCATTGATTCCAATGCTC"
**A:** TRUE

**Q:** Consider next the sequence "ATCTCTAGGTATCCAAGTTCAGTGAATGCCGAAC" in the same way.
**A:** TRUE

**Q:** Please do the same for "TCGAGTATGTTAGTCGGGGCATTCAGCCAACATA" as well.
**A:** FALSE

**Q:** Record: "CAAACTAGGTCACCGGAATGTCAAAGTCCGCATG"
**A:** TRUE

**Q:** Note, next up: "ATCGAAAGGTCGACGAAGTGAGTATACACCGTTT"
**A:** TRUE

**Q:** Another sequence to check: "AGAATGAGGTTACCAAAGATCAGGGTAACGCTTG"
**A:** FALSE

**Q:** Moving on to the next sequence: "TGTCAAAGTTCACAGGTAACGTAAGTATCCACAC"
**A:** TRUE

**Q:** And for "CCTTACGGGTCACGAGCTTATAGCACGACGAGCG" ?
**A:** FALSE
